Quick reference: protein stability index of the listed items.
B1: PCMTD2 (parent)
chain: FFIRTSDSFDKFDFCEPSFVTGNC

- Variants of: B1
- protocol: protein stability index of a GFP-peptide fusion (GPS, HEK-293T) (PSI 1-6); higher = more stable;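 also: lentivirally expressed fusions sorted by FACS into six bins by GFP to DsRed ratio, PSI derived from sequencing read proportions per bin multiplied by bin number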
- measurement-setup: c terminus: a fixed tail appended
Give the figure only, with no unit attached.

Look over these answered cases.
seq	protein stability index
FFIRTSDSFDKFDFCEPWFVTGNC [S18W]	3.1
FFIRTSDSFDKFDFCEPSFVTTNC [G22T]	2.24
FFIRTSDSFDKFDFDEPSFVTGNC [C15D]	2.14
FFIRTSDSFDKFDFCEPSFVTGNY [C24Y]	2.53
FFCRTSDSFDKFDFCEPSFVTGNC [I3C]	1.81
FFIRTSDSFDKFDFCELSFVTGNC [P17L]	3.54
FFIRTSDSFDKFDFCNPSFVTGNC [E16N]	2.95
FFIRTSDVFDKFDFCEPSFVTGNC [S8V]	4.76
HFIRTSDSFDKFDFCEPSFVTGNC [F1H]	2.19
FFIRTSDSHDKFDFCEPSFVTGNC [F9H]	2.24

## Task Which protein stability index value is on record for FFIRTSDSFHKFDFCEPSFVTGNC [D10H] ?
## Result 2.83

## Task Which protein stability index value is on record for FFIRTSSSFDKFDFCEPSFVTGNC [D7S] ?
## Result 3.69

## Task Which protein stability index value is on record for FFIRTSDSFDKFDFCEPSQVTGNC [F19Q] ?
## Result 1.91

src = the supplement of paper PMC10567573
